A collection of molecules and their measured TbrCatL 0’ Inhibition
targetOrTestSystem: TbrCatL (Trypanosoma brucei rhodesiense, UniProt Q95PM0)
Construct: Conor Caffrey (University of California San Diego)
Sequence (Q95PM0 entry or part of it): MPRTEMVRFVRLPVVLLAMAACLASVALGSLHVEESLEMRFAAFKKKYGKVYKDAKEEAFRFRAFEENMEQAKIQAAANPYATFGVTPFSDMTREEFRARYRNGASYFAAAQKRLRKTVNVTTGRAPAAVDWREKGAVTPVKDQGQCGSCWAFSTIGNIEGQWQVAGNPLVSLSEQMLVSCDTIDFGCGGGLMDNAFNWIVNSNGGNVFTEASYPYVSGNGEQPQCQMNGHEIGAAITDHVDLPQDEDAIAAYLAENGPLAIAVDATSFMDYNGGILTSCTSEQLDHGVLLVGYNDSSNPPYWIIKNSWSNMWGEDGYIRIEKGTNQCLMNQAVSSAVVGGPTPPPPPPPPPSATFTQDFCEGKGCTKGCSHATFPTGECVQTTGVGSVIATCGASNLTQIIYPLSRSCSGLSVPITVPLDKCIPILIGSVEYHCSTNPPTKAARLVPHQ
protocolText: TbrCatL enzymatic inhibition assay (cleavage of fluorogenic substrate Z-FR-AMC);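 also: at 5 µM compound concentration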
Format: biochemical
testSettings: 0’ (pre-incubation time); sheet "Screening results"
Give just the number in %; leave the unit off.

[[record]]
molecule = "Cc1cc(NCC(C)C)c2[nH]nc(-c3ccccc3)c2n1 [MMV021375]"
targetortestsystem = "TbrCatL (Trypanosoma brucei rhodesiense, UniProt Q95PM0)"
unitsymbol = "%"
observedresult = 17


Task item: What value of measured TbrCatL 0’ Inhibition is listed for NC(=O)c1cc(-c2ccsc2)ccc1OCCOc1ccccc1 [MMV687138] ?
Reply: 0.2

Task item: TbrCatL 0’ Inhibition lookup needed for CC(C)(C)OC(=O)N1CCN(c2cc(-c3ccc(Oc4ccccc4)cc3)n[nH]2)CC1 [MMV676057] , thanks.
Reply: -2.3

Task item: What value of TbrCatL 0’ Inhibition has been recorded for this entry: CCc1nc2ccc(Cl)cn2c1C(=O)NCc1ccc(N2CCC(c3ccc(OC(F)(F)F)cc3)CC2)cc1 [MMV687696]
Reply: -4.5

Task item: Name the recorded TbrCatL 0’ Inhibition for CC(C)(C)c1cc(C(=O)N2CCN(c3nccnc3C#N)CC2)n(Cc2ccccc2)n1 [MMV023949] .
Reply: 12

Task item: What measured TbrCatL 0’ Inhibition goes with CNC(=O)C1Cc2c([nH]c3cc(Cl)ccc23)C2(CCN(CCc3ccccc3)CC2)N1 (stereo not drawn) [MMV031011] ?
Reply: -11

Task item: Item under review: OCCc1ccc(Nc2nccc(-c3nnc4ccccn34)n2)cc1 [MMV028694] . Reported TbrCatL 0’ Inhibition?
Reply: 8

Task item: Entry under review: O=C1COCc2ccc(Br)cc2N1Cc1ccc(C(F)(F)F)cc1 [MMV032995] . Reported TbrCatL 0’ Inhibition?
Reply: -7

Task item: Which value of TbrCatL 0’ Inhibition has been reported for CC(Oc1ccccc1)C(=O)Nc1nc(-c2ccccn2)cs1 (stereo not drawn) [MMV676411] in the records?
Reply: -14

###

targetOrTestSystem: cruzain (Trypanosoma cruzi, UniProt P25779)
Sequence (P25779 123-337 limits assumed): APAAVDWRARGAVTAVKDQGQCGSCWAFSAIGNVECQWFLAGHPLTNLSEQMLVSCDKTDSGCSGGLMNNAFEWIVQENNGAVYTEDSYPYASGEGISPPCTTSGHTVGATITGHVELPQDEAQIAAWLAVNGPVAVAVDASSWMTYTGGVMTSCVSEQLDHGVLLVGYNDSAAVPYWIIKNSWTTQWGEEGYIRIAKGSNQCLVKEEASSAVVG
protocolText: Aggregation counter-assays: cruzain inhibition at varying Triton X-100 and after pre-incubation with BSA
Format: biochemical
Set-up: Cruzain is the truncated, recombinant-expressed cruzipain 1; Brian Shoichet (University of California San Francisco)
testSettings: 0.001% Triton X-100; compound µM: MMV687246 12.5, MMV687812 3.125, MMV688179 1.563, MMV688362 3.125, MMV688466 6.25, MMV690028 25
Please note: class 1 applies when % Cruzain Inhibition (Mean ± SEM) 0.001% Triton X-100 is 70% or greater, and class 0 applies otherwise.

[[record]]
structureassmiles = "CN1CCN(CCCOc2ncc(Nc3ncc(-c4ccc(C(F)(F)F)c(F)c4)nc3C(N)=O)cn2)CC1"
categorylabel = "class 1"

[[record]]
structureassmiles = "Cn1ccnc1CNCCS(=O)(=O)c1cccc(Nc2ccc(-c3cccc(F)c3)cn2)c1"
categorylabel = "class 1"


Task item: Assess whether reported % Cruzain Inhibition (Mean ± SEM) 0.001% Triton X-100 for "CN1CCN(S(=O)(=O)c2ccc(-c3ccc4c(Nc5ccc6nn[nH]c6c5)ccnc4c3)cc2)CC1" sits at 70% or higher.
Reply: class 0

Task item: In plain terms: is recorded % Cruzain Inhibition (Mean ± SEM) 0.001% Triton X-100 at least 70% for "COc1cc(C2=NCCN2)cc2cc(-c3ccc(C4=NCCN4)cc3)oc12" ?
Reply: class 0

Task item: Can "N=C(N)Nc1ccc(-c2ccc(-c3ccc(NC(=N)N)cc3Cl)o2)c(Cl)c1" be said to have % Cruzain Inhibition (Mean ± SEM) 0.001% Triton X-100 at or above 70%?
Reply: class 1

FYI, the data here is from paper PMC9967275.
